Test system: OPN production in RPMI8226 cells
experiment.summary: OPN production inhibiting effect in cultured RPMI8226 cells (ELISA of culture supernatant)
Format: cell-based, human
condition.summary: Homo sapiens, RPMI-8226, 72 h; RPMI8226 myeloma cells; 3 days prophase + 3 days anaphase culture; 0.1-10 μmol/L; OPN in culture supernatant by ELISA; logistic curve; read-out: IC50 (OPN production inhibition)
The following compounds are shown together with reported IC50 values.
Number only, in nM; omit the unit.

Solved entries:
compound	IC50 (nM)
CSc1ccc(-c2nn(Cc3ccccc3)c(=O)cc2-c2ccc(Cl)cc2)cc1	2560
CSc1ccc(-c2nn(Cc3ccccn3)c(=S)cc2-c2ccc(Cl)cc2)cc1 [Compound 1, methanesulfonate]	2090
CCn1nc(-c2ccc(OC)cc2)c(-c2ccc(OC)cc2)cc1=O	1120

*Q* Can you look up the measured IC50 of "COc1ccc(-c2cc(=O)n(CC=Cc3ccc(Cl)cc3)nc2-c2ccc(OC)cc2)cc1" for me?
*A* 2760

*Q* Here is the next compound: CSc1ccc(-c2nn(Cc3cccnc3)c(=O)cc2-c2ccc(Cl)cc2)cc1 [Compound 2, methanesulfonate]
*A* 2910

Every entry's value here was drawn from patent US20070021418A1.
